# Target or test system: Recombinant human LTC4 synthase (Homo sapiens, UniProt Q16873)
# Construct: made in house; host or cells: Pichia pastoris ('Piccia pastoralis' [sic])
# Test details: In vitro LTC4 synthase assay (LTA4 to LTC4, HTRF detection)
# Assay type: biochemical
Quantity name: log10 IC50 (log10 of the value in nM)
Use the decimal logarithm of IC50 (nM).

Some molecules with known log10 IC50 results, for comparison:
{"Molecule": "CN(c1ccc(Cl)cc1)c1ccc(C(=O)c2cc(Nc3cc(F)ccc3F)cc(C(=O)O)c2)cc1 [10:5]", "Target or test system": "Recombinant human LTC4 synthase (Homo sapiens, UniProt Q16873)", "log10 IC50": 2.32}
{"Molecule": "CN(c1ccc(Cl)cc1)c1ccc(C(=O)c2cc(C(=O)O)cc(N(C)c3ccc(Cl)cc3Cl)c2)cc1 [10:13]", "Target or test system": "Recombinant human LTC4 synthase (Homo sapiens, UniProt Q16873)", "log10 IC50": 1.60}
{"Molecule": "CN(c1ccc(Cl)cc1)c1ccc(C(=O)c2cc(C(=O)O)cc(N(C)c3ccc4c(c3)OCCO4)c2)nc1 [9:34]", "Target or test system": "Recombinant human LTC4 synthase (Homo sapiens, UniProt Q16873)", "log10 IC50": 2.33}
{"Molecule": "CON=C(c1ccc(N(C)c2ccc(Cl)cc2)cc1)c1cc(Oc2ccccc2)cc(C(=O)O)c1 (mixture of isomers) [Example 18]", "Target or test system": "Recombinant human LTC4 synthase (Homo sapiens, UniProt Q16873)", "log10 IC50": 2.87}
{"Molecule": "CN(c1ccc(Cl)cc1)c1ccc(C(=O)c2cc(C(=O)O)cc(N(C)C3CCOCC3)c2)cc1 [10:22]", "Target or test system": "Recombinant human LTC4 synthase (Homo sapiens, UniProt Q16873)", "log10 IC50": 2.40}

Param item: COc1ccccc1Nc1cc(C(=O)O)cc(C(=O)c2ccc(N(C)c3ccc(Cl)cc3)cc2)c1 [10:15] ; param system: Recombinant human LTC4 synthase (Homo sapiens, UniProt Q16873); output log10 IC50: 2.56

Form field, log10 IC50 with Recombinant human LTC4 synthase (Homo sapiens, UniProt Q16873), item CCCCOc1ccc(S(=O)(=O)Nc2cc(C(=O)O)cc(C(=O)c3ccc(Nc4ccc(Cl)cc4)cc3)c2)cc1 [Example 7] : 1.95

----------
# Target or test system: Recombinant human LTC4 synthase (Homo sapiens, UniProt Q16873)
# Test details: In vitro LTC4 synthase assay (LTA4 to LTC4, HTRF detection)
Quantity name: pIC50
Reminder that pIC50 means the negative base-10 logarithm of the concentration expressed in mol/L.

Recorded results for 6 compounds are shown here.
{"Compound": "CN(c1ccc(Cl)cc1)c1ccc(C(=O)c2cc(Nc3cccc(Cl)c3)cc(C(=O)O)c2)nc1 [Example 9:2]", "Quantity name": "pIC50", "Meas value": 6.61}
{"Compound": "CN(c1ccc(Cl)cc1)c1ccc(C(=O)c2cc(Nc3ccc(C(F)(F)F)cc3Cl)cc(C(=O)O)c2)cc1 [10:11]", "Quantity name": "pIC50", "Meas value": 6.90}
{"Compound": "CN(c1ccc(Cl)cc1)c1ccc(C(=O)c2cc(C(=O)O)cc(N(CCCCO)c3ccccn3)c2)nc1 [9:40]", "Quantity name": "pIC50", "Meas value": 6.44}
{"Compound": "C=CCCC(=O)N(c1ccccc1)c1cc(C(=O)O)cc(C(=O)c2ccc(N(C)c3ccc(Cl)cc3)cc2)c1 [10:32]", "Quantity name": "pIC50", "Meas value": 6.18}
{"Compound": "CN(c1ccc(Cl)cc1)c1ccc(C(=O)c2cc(Nc3ccccc3Cl)cc(C(=O)O)c2)nc1 [9:5]", "Quantity name": "pIC50", "Meas value": 6.80}
{"Compound": "CN(c1ccc(Cl)cc1)c1ccc(C(=O)c2cc(C(=O)O)cc(N(CC(C)(C)O)c3ccccc3)c2)nc1 [Example 9:27]", "Quantity name": "pIC50", "Meas value": 7.51}

Please look at the following compound next.
Noted for COc1ccccc1N(C(C)=O)c1cc(C(=O)O)cc(C(=O)c2ccc(N(C)c3ccc(Cl)cc3)cn2)c1 [9:24] : its pIC50 reads 6.03

----------
# Target or test system: Recombinant human LTC4 synthase (Homo sapiens)
# Sequence (Q16873 1-150): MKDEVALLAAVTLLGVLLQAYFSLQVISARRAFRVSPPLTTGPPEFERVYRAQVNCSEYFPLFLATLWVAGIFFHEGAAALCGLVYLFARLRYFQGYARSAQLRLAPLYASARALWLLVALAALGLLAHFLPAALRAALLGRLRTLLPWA
# Test details: In vitro LTC4 synthase assay (LTA4 to LTC4, HTRF detection)
Consider the following compounds and their measured IC50 readings.
Value expressed in nM; do not type the unit.

Previously resolved entries follow.
{"Smiles data": "CN(c1ccc(Cl)cc1)c1ccc(C(=O)c2cc(Oc3ccccc3)cc(C(=O)O)c2)nc1", "Meas value": 67}
{"Smiles data": "CN(c1ccc(Cl)cc1)c1ccc(C(=O)c2cc(Oc3ccc(Cl)cc3)cc(C(=O)O)c2)nc1", "Meas value": 76}

Entry "CN(c1ccc(Cl)cc1)c1ccc(C(=O)c2cc(Oc3ccc4c(c3)OCO4)cc(C(=O)O)c2)cc1" ; IC50 = 109

Record summary for "COc1ccccc1N(C)c1cc(C(=O)O)cc(C(=O)c2ccc(N(C)c3ccc(Cl)cc3)cn2)c1" : reported IC50 = 366

Measured IC50 of "CN(c1ccc(Cl)cc1)c1ccc(C(=O)c2cc(Nc3ccccc3)cc(C(=O)O)c2)cc1" : 80

Sure, the documented IC50 for "CN(c1ccc(Cl)cc1)c1ccc(C(=O)c2ccc(Nc3ccc(Cl)cc3)cc2)c(C(=O)O)c1" is 224

Per the records, this compound ( "COc1ccc(COc2cc(C(=O)O)cc(C(=O)c3ccc(N(C)c4ccc(Cl)cc4)cn3)c2)cc1" ) has IC50 equal to 887

Reported IC50 of "CC(=O)N(c1cc(C(=O)O)cc(C(=O)c2ccc(N(C)c3ccc(Cl)cc3)cn2)c1)C1CCOCC1" : 2550

----------
Documented IC50 across a set of compounds
# Target or test system: Recombinant human LTC4 synthase (Homo sapiens)
# Construct: made in house; host or cells: Pichia pastoris ('Piccia pastoralis' [sic])
# Test details: In vitro LTC4 synthase assay (LTA4 to LTC4, HTRF detection)
# Assay type: biochemical
Put down the number, then write its unit next to it.

Check out these entries, answers already filled in.
{"Compound": "CN(c1ccc(Cl)cc1)c1ccc(C(=NO)c2cc(Oc3ccccc3)cc(C(=O)O)c2)cc1 (mixture of isomers) [Example 17]", "Quantity name": "IC50", "Meas value": "834 nM"}
{"Compound": "CN(c1ccc(Cl)cc1)c1ccc(C(=O)c2cc(C(=O)O)cc(N(C(=O)C3CCC3)c3ccccc3)c2)cc1 [Example 10:31]", "Quantity name": "IC50", "Meas value": "277 nM"}
{"Compound": "CN(c1ccc(Cl)cc1)c1ccc(C(=O)c2cc(C(=O)O)cc(N(C(=O)CO)c3ccccc3)c2)nc1 [9:38]", "Quantity name": "IC50", "Meas value": "470 nM"}
{"Compound": "CCOCCN(c1ccccc1)c1cc(C(=O)O)cc(C(=O)c2ccc(N(C)c3ccc(Cl)cc3)cn2)c1 [9:47]", "Quantity name": "IC50", "Meas value": "60 nM"}

Okay, now this compound:
GET /value?item= Cc1ccc(Oc2cc(C(=O)O)cc(C(=O)c3ccc(N(C)c4ccc(Cl)cc4)cn3)c2)cc1 [8:6] &field=IC50 returns 120 nM

----------
# Target or test system: Recombinant human LTC4 synthase (Homo sapiens)
# Test details: In vitro LTC4 synthase assay (LTA4 to LTC4, HTRF detection)
Below, each entry is listed with its recorded IC50.
Field: numeric (nM). Do not append units.

Known IC50 results, listed for orientation:
{"Compound": "COc1cccc(N(C)c2cc(C(=O)O)cc(C(=O)c3ccc(N(C)c4ccc(Cl)cc4)cn3)c2)c1 [9:21]", "Target or test system": "Recombinant human LTC4 synthase (Homo sapiens)", "IC50 (nM)": 274}
{"Compound": "CN(c1ccc(Cl)cc1)c1ccc(C(=O)c2cc(C(=O)O)cc(N3CCCCC3)c2)nc1 [9:37]", "Target or test system": "Recombinant human LTC4 synthase (Homo sapiens)", "IC50 (nM)": 506}
{"Compound": "CN(c1ccc(Cl)cc1)c1ccc(C(=O)c2cc(Oc3ccc(C#N)cc3)cc(C(=O)O)c2)nc1 [8:7]", "Target or test system": "Recombinant human LTC4 synthase (Homo sapiens)", "IC50 (nM)": 274}

Let's switch to this compound now.
Record CCCCCCC(=O)Nc1cc(C(=O)O)cc(C(=O)c2ccc(N(C)c3ccc(Cl)cc3)cc2)c1 [Example 1:2] has Recombinant human LTC4 synthase (Homo sapiens) IC50 equal to 139

These entries and their values trace back to patent US20120004228A1.
